tested on: Escherichia coli; experiment: Antibacterial activity against multi-drug resistant Escherichia coli NMI 3548/14 assessed as reduction in microbial growth incubated for 20 hrs; assay type: functional; settings: NMI 3548/14, 20 h
readout.label: MIC

Some entries whose results are on file:
{"columns": ["line.notation", "MIC"],
 "data": [
  ["CC1(C)S[C@@H]2[C@H](NC(=O)[C@H](N)c3ccccc3)C(=O)N2[C@H]1C(=O)O", "> 128 µg/mL"],
  ["C[C@H]1[C@H](NC(=O)/C(=N\\OC(C)(C)C(=O)O)c2csc(N)n2)C(=O)N1S(=O)(=O)O", "> 16 µg/mL"]
]}

Lab note: next compound to report on.
Query string: I have this compound here, `CC[C@@H](C)[C@@H](NC(=O)[C@H]1CCCN1C(=O)[C@@H](CCCNC(=N)N)NC(=O)[C@H]1CCCN1C(=O)[C@@H](Cc1cnc[nH]1)NC(=O)[C@@H](CO)NC(=O)[C@H](NC(=O)[C@H]1CCCN1C(=O)[C@@H](CCCNC(=N)N)NC(=O)[C@H]1CCCN1C(=O)[C@@H](CO)NC(=O)[C@@H](Cc1ccc(O)cc1)NC(=O)[C@H]1CCCN1C(=O)[C@@H](CCCNC(=N)N)NC(=O)[C@H]1CCCN1C(=O)[C@@H](CCCNC(=N)N)NC(=O)CCCCCNC(=O)[C@H](N)CCCNC(=N)N)[C@H](C)O)C(=O)N[C@H](CCCNC(=N)N)C(=O)N[C@@H](C(N)=O)C(C)C` , and I need its recorded MIC.
Result string: > 64 µg/mL
